# protocol_description: NCI Yeast Anticancer Drug Screen. Data for the mec2-1 strain (AID 157)
# condition_label: S. cerevisiae mec2-1 strain, at 50.0 µM, hits give high values
About 79,000 compounds went through this panel and 15% of them were active in at least one assay; those are over-represented in the sample as a whole.
Form field: growth inhibition (one value per entry).
# number only, unit % dropped from output

Field: example entries. Status: answers known.
OCCN(Cc1ccccc1)Cc1ncccc1O: -27.1
CC(=O)Nc1cc2c(cc1Br)-c1ccccc1C2=O: -3.5
CCOC(=O)c1c(C)[nH]c(C)c1/C=C/C(=O)O: -5.1
CN1C(c2ccccc2)=C(C#N)C(=O)CC(c2cccs2)N1C (centres undefined): 7.45
CC1(C)CC2(C)NCCN2C(=S)N1 (centres undefined): 2.3
CCOC(=O)C(CC1OCCO1)C1=NC(C)(C)CC(C)O1 (centres undefined): 1.2
CC1(CCl)Nc2ccccc2C(=O)N1c1ccc(Cl)cc1 (centres undefined): -13.9
O=C(OCC(OC(=O)c1ccccc1)C1CC(C(O)C2CCCCC2)C(=O)O1)c1ccccc1 (centres undefined): 22.1

I would be grateful if you could share the reported growth inhibition for COC(=O)C1(C)CCCC2(C)C3CCC(C(C)C)CC3CCC12 (centres undefined) . -12.8

# credit: PubChem BioAssay (NCI)
